B1: F1*; the commonest letter at each place (parent)
chain: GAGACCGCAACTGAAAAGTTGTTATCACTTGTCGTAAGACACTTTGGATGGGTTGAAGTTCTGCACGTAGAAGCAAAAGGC

variants of: B1; assay: fraction ligated after 30 min (ligated reads / total reads); higher = more ligase activity; details: with F1*sub RNA substrate (template-directed ligation), 42 °C
Each record's class is read off its fraction ligated using these ranges: class 0 = under 0.7, class 1 = from 0.7 up to 0.8, class 2 = 0.8 and over

INSERT INTO measurements (mutation_annotation, qualitative_label) VALUES
  ('T23C G55C', 'class 0'),
  ('T25A A56G', 'class 0'),
  ('T29G C42G', 'class 2'),
  ('T30G A36C', 'class 2'),
  ('G31C G47A', 'class 0');

Please indicate the class for A41C A57C based on its fraction ligated.
class 1

Now this one: G46C G47C
class 0
